# target of assay: Steryl-sulfatase (Homo sapiens, UniProt P08842)
# Sequence (P08842 whole entry): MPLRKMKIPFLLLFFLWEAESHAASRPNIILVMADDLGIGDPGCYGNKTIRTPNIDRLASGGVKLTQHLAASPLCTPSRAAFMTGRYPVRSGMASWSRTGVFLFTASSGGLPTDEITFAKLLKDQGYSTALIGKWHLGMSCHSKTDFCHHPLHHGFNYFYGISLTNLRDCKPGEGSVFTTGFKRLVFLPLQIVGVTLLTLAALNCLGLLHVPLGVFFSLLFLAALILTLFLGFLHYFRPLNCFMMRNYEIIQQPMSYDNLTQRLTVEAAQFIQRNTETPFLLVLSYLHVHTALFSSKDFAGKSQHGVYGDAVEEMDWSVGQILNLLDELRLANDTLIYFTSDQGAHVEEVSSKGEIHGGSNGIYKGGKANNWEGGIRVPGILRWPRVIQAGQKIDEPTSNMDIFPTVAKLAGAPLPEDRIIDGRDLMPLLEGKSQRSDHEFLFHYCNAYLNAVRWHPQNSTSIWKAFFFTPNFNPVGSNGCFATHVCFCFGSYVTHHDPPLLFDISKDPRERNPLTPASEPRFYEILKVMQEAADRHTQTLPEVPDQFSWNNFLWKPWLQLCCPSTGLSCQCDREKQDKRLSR
reported property: Ki
Dear colleague, please send the value followed by its unit.

>  <molecule>
O=C(Cc1ccccc1)O[C@H]1C[C@H]2CC[C@@H](C1)N2C(=O)NS(=O)(=O)c1ccc(Br)cc1

>  <Ki>
1.85 µM

$$$$
>  <molecule>
O=C(Cc1ccccc1)O[C@H]1C[C@H]2CC[C@@H](C1)N2C(=O)NC(=O)c1ccc(Cl)cc1

>  <Ki>
5.8 µM

$$$$
>  <molecule>
O=C(Cc1ccccc1)O[C@H]1C[C@H]2CC[C@@H](C1)N2C(=O)NS(=O)(=O)c1cc(C(F)(F)F)cc(C(F)(F)F)c1

>  <Ki>
0.076 µM

$$$$
>  <molecule>
C[C@]12CC[C@@H]3c4ccc(OS(N)(=O)=O)cc4CC[C@H]3[C@@H]1CCC2=O [EMATE]

>  <Ki>
0.67 µM

$$$$
>  <molecule>
O=C(Cc1ccccc1)O[C@H]1C[C@H]2CC[C@@H](C1)N2C(=O)NS(=O)(=O)c1ccc(C(F)(F)F)cc1

>  <Ki>
0.53 µM

$$$$
>  <molecule>
O=C(NN1[C@@H]2CC[C@H]1C[C@@H](OC(=O)Cc1ccccc1)C2)NS(=O)(=O)c1ccc(Cl)cc1

>  <Ki>
0.89 µM

$$$$

IN: Specify measured Ki for O=C(Cc1ccccc1)O[C@H]1C[C@H]2CC[C@@H](C1)N2C(=O)NS(=O)(=O)c1ccc(Cl)cc1 .
OUT: 2.4 µM

====

# target of assay: Steryl-sulfatase (Homo sapiens, UniProt P08842)
# Sequence (P08842 whole entry): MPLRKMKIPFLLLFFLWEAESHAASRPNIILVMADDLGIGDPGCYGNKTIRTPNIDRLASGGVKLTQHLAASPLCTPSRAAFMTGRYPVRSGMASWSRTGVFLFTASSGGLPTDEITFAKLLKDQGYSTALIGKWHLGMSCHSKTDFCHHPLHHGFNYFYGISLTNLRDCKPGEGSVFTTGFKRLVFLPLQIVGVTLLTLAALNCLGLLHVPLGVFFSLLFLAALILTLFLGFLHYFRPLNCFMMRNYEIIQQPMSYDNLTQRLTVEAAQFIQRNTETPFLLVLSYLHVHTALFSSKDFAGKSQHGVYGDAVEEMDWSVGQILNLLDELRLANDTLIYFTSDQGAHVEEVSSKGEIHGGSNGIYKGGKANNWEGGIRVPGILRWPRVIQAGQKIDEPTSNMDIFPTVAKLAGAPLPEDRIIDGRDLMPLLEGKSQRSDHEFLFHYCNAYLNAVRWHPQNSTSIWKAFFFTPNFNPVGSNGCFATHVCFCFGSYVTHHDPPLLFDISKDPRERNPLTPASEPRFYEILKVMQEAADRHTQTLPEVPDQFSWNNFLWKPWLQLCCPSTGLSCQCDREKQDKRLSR
# assay notes: Inhibitory activity against Steroid sulfatase expressed in CHO cells
# Assay type: cell-based
Simple rule here: IC50 less than 4 µM is satisfied, otherwise not satisfied.

Sample answers from the record:
>  <compound>
O=C(Cc1ccccc1)O[C@H]1C[C@H]2CC[C@@H](C1)N2C(=O)NS(=O)(=O)c1ccc(Cl)cc1

>  <qualitative label>
not satisfied

$$$$
>  <compound>
O=C(Cc1ccccc1)O[C@H]1C[C@H]2CC[C@@H](C1)N2C(=O)NS(=O)(=O)c1ccc(F)cc1

>  <qualitative label>
not satisfied

$$$$
>  <compound>
O=C(Cc1ccccc1)O[C@H]1C[C@H]2CC[C@@H](C1)N2C(=O)CS(=O)(=O)c1ccc(Cl)cc1

>  <qualitative label>
not satisfied

$$$$
>  <compound>
O=C(NN1[C@@H]2CC[C@H]1C[C@@H](OC(=O)Cc1ccccc1)C2)NS(=O)(=O)c1ccc(Cl)cc1

>  <qualitative label>
satisfied

$$$$
>  <compound>
O=C(Cc1ccccc1)O[C@H]1C[C@H]2CC[C@@H](C1)N2C(=O)NS(=O)(=O)c1ccc(Br)cc1

>  <qualitative label>
not satisfied

$$$$

IN: Is IC50 strictly under 4 µM for the entry O=C(Cc1ccccc1)O[C@H]1C[C@H]2CC[C@@H](C1)N2C(=O)NS(=O)(=O)c1cc(C(F)(F)F)cc(C(F)(F)F)c1 ?
OUT: satisfied

IN: Is IC50 strictly under 4 µM for the entry O=C(Cc1ccccc1)OC1CCN(C(=O)NS(=O)(=O)c2ccc(Cl)cc2)CC1 ?
OUT: not satisfied

IN: Is IC50 strictly under 4 µM for the entry C[C@]12CC[C@@H]3c4ccc(OS(N)(=O)=O)cc4CC[C@H]3[C@@H]1CCC2=O [EMATE] ?
OUT: satisfied
